Numbers sourced from ChEMBL document CHEMBL3734709.

test: Selectivity index, ratio of CC50 for african green monkey Vero cells to MIC for Mycobacterium tuberculosis H37Rv; type: toxicity, cell-based; details: read-out: Selectivity Index
Property: selectivity ratio; scope: individual compounds
MEASUREMENT NAME: selectivity ratio

>  <STRUCTURE NOTATION>
COc1ccccc1N1CCN(C(=O)c2cc3c4ccccc4n(C)c3c(-c3ccccc3)n2)CC1

>  <RECORDED MEASUREMENT>
> 25

$$$$
>  <STRUCTURE NOTATION>
CO[C@H]1/C=C/O[C@@]2(C)Oc3c(C)c(O)c4c(O)c(c(/C=N/N5CCN(C)CC5)c(O)c4c3C2=O)NC(=O)/C(C)=C\C=C\[C@H](C)[C@H](O)[C@@H](C)[C@@H](O)[C@@H](C)[C@H](OC(C)=O)[C@@H]1C

>  <RECORDED MEASUREMENT>
> 1360

$$$$
>  <STRUCTURE NOTATION>
Cc1ccc(N2CCN(C(=O)c3cc4c5ccccc5n(C)c4c(-c4ccccc4)n3)CC2)cc1

>  <RECORDED MEASUREMENT>
> 11.6

$$$$
>  <STRUCTURE NOTATION>
COc1ccc(N2CCN(C(=O)c3cc4c5ccccc5n(C)c4c(-c4ccccc4)n3)CC2)cc1

>  <RECORDED MEASUREMENT>
> 8.6

$$$$
>  <STRUCTURE NOTATION>
Cn1c2ccccc2c2cc(C(=O)N3CCN(c4cccc(Cl)c4)CC3)nc(-c3ccccc3)c21

>  <RECORDED MEASUREMENT>
> 1.3

$$$$
>  <STRUCTURE NOTATION>
Cc1ccccc1N1CCN(C(=O)c2cc3c4ccccc4n(C)c3c(-c3ccccc3)n2)CC1

>  <RECORDED MEASUREMENT>
> 20.8

$$$$
